Values from paper PMC10108347

tested_target: XIAP (Homo sapiens)
Sequence (P98170 whole entry): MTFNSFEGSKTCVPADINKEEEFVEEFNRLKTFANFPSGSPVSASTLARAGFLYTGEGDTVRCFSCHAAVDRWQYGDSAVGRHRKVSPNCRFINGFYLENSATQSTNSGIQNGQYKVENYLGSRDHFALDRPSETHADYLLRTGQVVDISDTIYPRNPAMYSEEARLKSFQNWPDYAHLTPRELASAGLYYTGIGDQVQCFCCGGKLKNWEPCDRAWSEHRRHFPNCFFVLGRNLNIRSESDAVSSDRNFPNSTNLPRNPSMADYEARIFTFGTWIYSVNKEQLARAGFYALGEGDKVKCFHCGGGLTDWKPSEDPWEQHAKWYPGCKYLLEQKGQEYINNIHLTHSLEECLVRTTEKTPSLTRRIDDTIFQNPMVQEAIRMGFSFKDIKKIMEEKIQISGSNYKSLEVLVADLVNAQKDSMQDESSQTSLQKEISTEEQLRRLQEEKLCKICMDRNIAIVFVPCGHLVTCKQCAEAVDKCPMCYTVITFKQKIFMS
protocol_description: Immunoblotting (western blot) quantification of XIAP levels in MM.1S cells
conditions: MM1.S, 16 h, read-out: %remaining protein XIAP, MM.1S cells, 16 h treatment at 0.1 μM, normalized to loading control and DMSO
reported_endpoint: remaining activity at 0.1 µM (%)

Past entries and their recorded results:
Cc1ncsc1-c1ccc([C@H](C)NC(=O)[C@@H]2C[C@@H](O)CN2C(=O)[C@@H](NC(=O)CCCCOc2cccc(O[C@H]3C[C@@H](C(=O)N[C@@H]4CCCc5ccccc54)N(C(=O)[C@@H](NC(=O)[C@H](C)N(C)C(=O)OC(C)(C)C)C4CCCCC4)C3)c2)C(C)(C)C)cc1 [PROTAC 10d]: 87
CN[C@@H](C)C(=O)N[C@H](C(=O)N1C[C@@H](Oc2cccc(OCCOCCOCCOCCNc3cccc4c3C(=O)N(C3CCC(=O)NC3=O)C4=O)c2)C[C@H]1C(=O)N[C@@H]1CCCc2ccccc21)C1CCCCC1 (stereo partly drawn) [PROTAC 24]: 2
CN[C@@H](C)C(=O)N[C@H](C(=O)N1C[C@@H](Oc2cccc(OCCOCCOCCNc3cccc4c3C(=O)N(C3CCC(=O)NC3=O)C4=O)c2)C[C@H]1C(=O)N[C@@H]1CCCc2ccccc21)C1CCCCC1 (stereo partly drawn) [PROTAC 23]: 3
CC(=O)N(C)[C@@H](C)C(=O)N[C@H](C(=O)N1C[C@@H](Oc2cccc(OCCCCC(=O)N[C@H](C(=O)N3C[C@H](O)C[C@H]3C(=O)N[C@@H](C)c3ccc(-c4scnc4C)cc3)C(C)(C)C)c2)C[C@H]1C(=O)N[C@@H]1CCCc2ccccc21)C1CCCCC1 [PROTAC 10c]: 88
Nc1cccc2c1C(=O)N(C1CCC(=O)NC1=O)C2=O (stereo not drawn) [POM, pomalidomide, reference compound]: 95

I: CN[C@@H](C)C(=O)N[C@H](C(=O)N1C[C@@H](Oc2cccc(OCCCCC(=O)N[C@H](C(=O)N3C[C@H](O)C[C@H]3C(=O)NCc3ccc(-c4scnc4C)cc3)C(C)(C)C)c2)C[C@H]1C(=O)N[C@@H]1CCCc2ccccc21)C1CCCCC1 [PROTAC 1]
II: CN[C@H](C)C(=O)N[C@H](C(=O)N1C[C@@H](Oc2cccc(OCCCCC(=O)N[C@H](C(=O)N3C[C@H](O)C[C@H]3C(=O)N[C@@H](C)c3ccc(-c4scnc4C)cc3)C(C)(C)C)c2)C[C@H]1C(=O)N[C@@H]1CCCc2ccccc21)C1CCCCC1 [PROTAC 10a]
// task: argmin of remaining activity at 0.1 µM over [ I , II ] // return label of chosen record I
(I: 5%, II: 8%)

A: CN[C@@H](C)C(=O)N[C@H](C(=O)N1C[C@@H](Oc2cccc(OCCCCCCOCCCCCCOCCCCCC(=O)N[C@H](C(=O)N3C[C@H](O)C[C@H]3C(=O)NCc3ccc(-c4scnc4C)cc3)C(C)(C)C)c2)C[C@H]1C(=O)N[C@@H]1CCCc2ccccc21)C1CCCCC1 [PROTAC 8]
B: CN[C@@H](C)C(=O)N[C@H](C(=O)N1C[C@@H](Oc2cccc(OCCCCOCCCCNc3cccc4c3C(=O)N(C3CCC(=O)NC3=O)C4=O)c2)C[C@H]1C(=O)N[C@@H]1CCCc2ccccc21)C1CCCCC1 (stereo partly drawn) [PROTAC 22]
Which entry has a larger number for remaining activity at 0.1 µM, A or B ? // return label of chosen record A
(A: 4%, B: 2%)

I: CN[C@@H](C)C(=O)N[C@H](C(=O)N1C[C@@H](Oc2cccc(OCCCCOCCCC(=O)N[C@H](C(=O)N3C[C@H](O)C[C@H]3C(=O)NCc3ccc(-c4scnc4C)cc3)C(C)(C)C)c2)C[C@H]1C(=O)N[C@@H]1CCCc2ccccc21)C1CCCCC1 [PROTAC 3]
II: CN[C@@H](C)C(=O)N[C@H](C(=O)N1C[C@@H](Oc2cccc(OCCOCCOCCOCC(=O)N[C@H](C(=O)N3C[C@H](O)C[C@H]3C(=O)NCc3ccc(-c4scnc4C)cc3)C(C)(C)C)c2)C[C@H]1C(=O)N[C@@H]1CCCc2ccccc21)C1CCCCC1 [PROTAC 5]
// task: argmin of remaining activity at 0.1 µM over [ I , II ] // return label of chosen record II
(II: 2%, I: 4%)
